# assayMethodText: Solubility in water
# Format: physicochemical
# conditions: 25° C.
outcomeMeasure: solubility

-- ask Given Cc1cc(Nc2ncc(Cl)c(Nc3ccccc3S(=O)(=O)C(C)C)n2)c(OC(C)C)cc1C1CCNCC1 , state its recorded solubility.
-- reply 20 µg/mL
